These entries and their values trace back to ChEMBL document CHEMBL3856282.

So I've got a bunch of compounds here, and I need their pKi values.
Experiment: Inhibition of Aspergillus nidulans FcyB expressed in germinating conidiospores of UapA, UapC, AzgA, FurD, FurA, FcyB, CntA transporter deficient Aspergillus nidulans assessed as suppression of [2,8 3H]-adenine uptake after 1 min by scintillation counting method
Quick note: pKi means taking -log10 of the concentration in moles per liter.

Sample CN1CCN(c2nccc3c2ncn3C2CCCC2)CC1 — what was its pKi?
4.42

Find the recorded pKi belonging to CC(C)n1cnc2c(NCCN(C)C)nccc21 and report it.
4.14

Item c1ccc(CNc2nccc3c2ncn3C2CCCC2)cc1 has what recorded pKi?
4.68

Field request: pKi | item: CC(C)n1cnc2c(NCc3ccccc3)nccc21
5.30

# query: pKi of entry Nc1nccc2c1ncn2C1CCCC1
4.74

Request the reported pKi associated with CN(C)CCNc1nccc2c1ncn2C1CCCC1
4.02
